- TEST_NAME: chemical genetic growth profiling, strain panel (AID 1159580);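 also: tested at 20 µM; growth read once vehicle control cultures reached saturation at 30 °C; 1 = growth at the plate median or of vehicle wells; lower values mean less growth of the strain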
- CONDITIONS: S. cerevisiae deletion strains, growth OD, locus YLR384C, strain iki3, active compounds read low
Out of some 5,500 compounds screened, about 2,000 (36%) were called active. Another 18% or so got no clear call; they are omitted. The list shows a part of the results.
OBSERVATION_TYPE: normalized growth
# respond with the number and nothing more

stdin: Fill in normalized growth for record CC(=O)OCC(=O)[C@@]1(O)CCC2C3CCC4=CC(=O)C=CC4(C)C3[C@@H](O)C[C@@]21C (stereo partly specified)
stdout: 0.973

stdin: Fill in normalized growth for record Cc1cccc(C)c1NC(=O)C1CCCCN1C (stereo unspecified)
stdout: 0.985

stdin: Fill in normalized growth for record `NCCCCC(=O)O`
stdout: 1.03

stdin: Fill in normalized growth for record CC1(C)N([O-])[N+](=O)C1(C)Br (stereo unspecified)
stdout: 0.986

stdin: Fill in normalized growth for record CCCCC(=O)O[C@]1(C(=O)CO)CCC2C3CCC4=CC(=O)CC[C@]4(C)C3[C@@H](O)C[C@@]21C (stereo partly specified)
stdout: 0.979

stdin: Fill in normalized growth for record CC12CCCCC1(Br)[N+](=O)N2[O-] (stereo unspecified)
stdout: 0.984
